Target: His-GST-TVMV-hRIPK1(1-324) (Homo sapiens (Human), UniProt Q13546)
Sequence (Q13546 1-324): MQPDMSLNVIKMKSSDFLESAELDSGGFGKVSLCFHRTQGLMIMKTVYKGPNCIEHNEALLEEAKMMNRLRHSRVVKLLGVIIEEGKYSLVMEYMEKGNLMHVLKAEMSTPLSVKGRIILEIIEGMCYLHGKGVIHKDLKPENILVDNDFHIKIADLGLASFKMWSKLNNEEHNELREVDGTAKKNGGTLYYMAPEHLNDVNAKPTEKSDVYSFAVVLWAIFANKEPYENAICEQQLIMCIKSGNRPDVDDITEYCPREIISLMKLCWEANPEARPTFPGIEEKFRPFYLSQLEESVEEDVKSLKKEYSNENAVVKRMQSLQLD
Test: RIPK1 HTRF Binding Assay
Settings: HTRF binding, 1 h at rt; read-out: RIPK1 (IC50)
Where a name gives a salt, the structure may show the parent alone.
Binning rule for recorded IC50: low: < 9 nM; middle: ≥ 9 nM and < 20 nM; high: ≥ 20 nM

Previously resolved entries follow.
compound | target-under-test | class-label
COc1ncc(-c2ccc3nc(NC(C)=O)cn3n2)cc1C(=O)NC(C)c1cccc(OC(F)(F)F)c1 (stereo not shown) [Example 125] | His-GST-TVMV-hRIPK1(1-324) (Homo sapiens (Human), UniProt Q13546) | high
CCC(=O)Nc1cn2nc(-c3cnc(OC)c(C(=O)NCc4cc(F)cc(F)c4OCC4CC4)c3)ccc2n1 | His-GST-TVMV-hRIPK1(1-324) (Homo sapiens (Human), UniProt Q13546) | low
CC(=O)Nc1cn2nc(-c3cnc(Cl)c(C(=O)NCc4cc(C(F)(F)F)ccc4F)c3)ccc2n1 | His-GST-TVMV-hRIPK1(1-324) (Homo sapiens (Human), UniProt Q13546) | high
CC(=O)Nc1cn2nc(-c3ccc(F)c(C(=O)NCc4cc(F)ccc4C(=O)N4CCC(F)(F)CC4)c3F)ccc2n1 | His-GST-TVMV-hRIPK1(1-324) (Homo sapiens (Human), UniProt Q13546) | low
Cc1ncc(-c2ccc3nc(NC(=O)C(C)(C)C#N)cn3n2)cc1C(=O)N[C@H](C)c1cc(OC(F)(F)F)ccc1F | His-GST-TVMV-hRIPK1(1-324) (Homo sapiens (Human), UniProt Q13546) | high

[Q] For this compound, which bin applies? CC(=O)Nc1cn2nc(-c3cnc(Cl)c(C(=O)NCc4cc(C(F)(F)F)ccc4Cl)c3)ccc2n1 [Example 274, TFA]
[A] middle

[Q] For this compound, which bin applies? `CC(=O)Nc1cn2nc(-c3cnc(C)c(C(=O)NCc4ccccc4OCC(F)(F)F)c3)ccc2n1`
[A] high

[Q] For this compound, which bin applies? `COc1ncc(-c2ccc3nc(NC(C)=O)cn3n2)cc1C(=O)NCc1cc(F)cc(OCC2CC2)c1`
[A] middle

###

Target: His-GST-TVMV-hRIPK1(1-324) (Homo sapiens (Human))
Test: RIPK1 HTRF Binding Assay
Settings: HTRF binding, 1 h at rt; read-out: RIPK1 (IC50)
pIC50: −log10 of the molar value.
Decide using pIC50: a value greater than or equal to 8 is rule met, a smaller one is rule not met.

[Q] Is pIC50 for Cc1ncc(-c2ccc3nc(NC(=O)C(C)(C)C#N)cn3n2)cc1C(=O)NCc1ccccc1Sc1ccccc1CO [Example 26] at or above 8?
[A] rule not met

[Q] Is pIC50 for Cc1ncc(-c2ccc3nc(NC(=O)CN4CCN(C)CC4)cn3n2)cc1C(=O)N[C@H](C)c1cc(OC(F)(F)F)ccc1F [Example 336] at or above 8?
[A] rule not met

[Q] Is pIC50 for COc1ncc(-c2ccc3nc(NC(C)=O)cn3n2)cc1C(=O)NCc1cc(F)ccc1OC1CCCC1 [Example 166] at or above 8?
[A] rule met

[Q] Is pIC50 for COc1ncc(-c2ccc3nc(NC(C)=O)cn3n2)cc1C(=O)NC(C)c1cc(F)cc(F)c1OCC1CC1 (stereo not drawn) [Example 130] at or above 8?
[A] rule met

[Q] Is pIC50 for [2H]C([2H])([2H])[C@@H](NC(=O)c1c(F)ccc(-c2ccc3nc(NC(C)=O)cn3n2)c1F)c1cc(OC(F)(F)F)ccc1F [Example 380] at or above 8?
[A] rule met

###

Biological target: His-GST-TVMV-hRIPK1(1-324) (Homo sapiens (Human))
Assay: RIPK1 HTRF Binding Assay
Settings: HTRF binding, 1 h at rt; read-out: RIPK1 (IC50)
Kindly apply the following: fulfilled if IC50 is less than 60 nM, not fulfilled in every other case.

molecule | class-label
CC(=O)Nc1cn2nc(-c3cnc(C)c(C(=O)N4CCCC(C(O)c5ccc(F)cc5)C4)c3)ccc2n1 (single isomer, unassigned) [Example 354] | not fulfilled
CC(=O)Nc1cn2nc(-c3ccc(C)c(C(=O)NCc4cc(C(=O)N5CC(F)(F)C5)ccc4F)c3)ccc2n1 | fulfilled
Cc1ncc(-c2ccc3nc(NC(=O)CN(C)C)cn3n2)cc1C(=O)NCC[C@H](O)c1ccc(Cl)cc1 | fulfilled
CC(=O)Nc1cn2nc(-c3cnc(Cl)c(C(=O)NC(C)c4cc(C(F)(F)F)ccc4F)c3)ccc2n1 (centres unmarked) [Example 269] | fulfilled
CC(=O)Nc1cn2nc(-c3ccc(C)c(C(=O)NCc4cc(F)cc(F)c4C(=O)N4CC[C@H](O)C4)c3)ccc2n1 | fulfilled
CC(=O)Nc1cn2nc(-c3cnc(C)c(C(=O)NCc4cccc(OCC(F)(F)F)c4)c3)ccc2n1 | not fulfilled

[Q] State whether 60 nM exceeds IC50 recorded for COc1nc(C)c(-c2ccc3nc(NC(C)=O)cn3n2)cc1C(=O)NCc1ccccc1OC(C)C1CCCC1 (centres unmarked) [Example 302] .
[A] fulfilled

[Q] State whether 60 nM exceeds IC50 recorded for COc1ncc(-c2ccc3nc(NC(C)=O)cn3n2)cc1C(=O)NCCC(O)c1ccc(Cl)cc1 (centres unmarked) .
[A] not fulfilled

###

Molecular target: His-GST-TVMV-hRIPK1(1-324) (Homo sapiens (Human))
Assay: RIPK1 HTRF Binding Assay
Conditions: HTRF binding, 1 h at rt; read-out: RIPK1 (IC50)
Structures can show the parent of a compound that is named as a salt.
readout-name: pIC50
Give bare numbers, as −log10 of the molar value.

molecule | pIC50
CC(=O)Nc1cn2nc(-c3cc(C(=O)NCc4cc(F)cc(F)c4OCC4CC4)cnc3C)ccc2n1 | 8.40

Please state, for each entry, its recorded pIC50.
1. COc1ncc(-c2ccc3nc(NC(C)=O)cn3n2)cc1C(=O)NCc1cc(C(F)(F)F)ccc1F
2. COc1cc(C)c(-c2ccc3nc(NC(C)=O)cn3n2)cc1C(=O)NCc1cc(OC(F)(F)F)ccc1F

[A]
[7.72, 8.70]

Please state, for each entry, its recorded pIC50.
1. CC(=O)Nc1nc2ccc(-c3cnc(C)c(C(=O)NCc4cccc(OC(F)(F)F)c4)c3)nn2c1C
2. COCC(=O)Nc1cn2nc(-c3cnc(OC)c(C(=O)NCc4cc(F)cc(F)c4OCC4CC4)c3)ccc2n1 [Example 261, TFA]

[A]
1. 7.28
2. 8.15

###

Kindly supply the reported log10(IC50) values for the records listed here.
Molecular target: His-GST-TVMV-hRIPK1(1-324) (Homo sapiens (Human))
Assay: RIPK1 HTRF Binding Assay
Details: HTRF binding, 1 h at rt; read-out: RIPK1 (IC50)
log10 IC50, nM

Please state, for each entry, its recorded log10(IC50).
1. CC(=O)Nc1cn2nc(-c3ccc(Cl)c(C(=O)NCC[C@H](O)c4ccc(Cl)cc4)c3F)ccc2n1
2. CC(=O)Nc1cn2nc(-c3cnc(C)c(C(=O)NC(C)c4cc(C(F)(F)F)ccc4F)c3)ccc2n1 (centres unmarked) [Example 204]
3. [2H]C([2H])([2H])Oc1ncc(-c2ccc3nc(NC(C)=O)cn3n2)cc1C(=O)NCc1cc(F)cc(F)c1OC([2H])([2H])C1CC1
4. CC(=O)Nc1cn2nc(-c3cnc(C)c(C(=O)Nc4cn(Cc5ccc(Cl)cc5)cn4)c3)ccc2n1

[A]
1: 0.70; 2: 2.09; 3: 0.48; 4: 1.71

###

Target: His-GST-TVMV-hRIPK1(1-324) (Homo sapiens (Human))
Assay: RIPK1 HTRF Binding Assay
Conditions: HTRF binding, 1 h at rt; read-out: RIPK1 (IC50)
Structures can show the parent of a compound that is named as a salt.
Kindly supply the reported IC50 values for the records listed here.
The reply should read as a number followed by its unit.

// below: answered molecules
molecule | IC50
COc1nc(C)c(-c2ccc3nc(NC(C)=O)cn3n2)cc1C(=O)NCc1cccnc1OCC1CCCC1 | 9 nM
CC(=O)Nc1nc2ccc(-c3cnc(C)c(C(=O)NCc4cc(OC(F)(F)F)ccc4F)c3)nn2c1C | 14 nM
CC(=O)Nc1cn2nc(-c3cc(C(=O)NCc4cc(OC(F)(F)F)ccc4F)c(C)nc3C)ccc2n1 | 5 nM
COc1ncc(-c2ccc3nc(NC(C)=O)cn3n2)cc1C(=O)NCc1cc(F)cc(F)c1OC1CCOC(C)C1 (centres unmarked) | 10 nM
CC(=O)Nc1cn2nc(-c3cnc(C)c(C(=O)Nc4cn(Cc5ccc(F)cc5)cn4)c3)ccc2n1 | 27 nM

Please state, for each entry, its recorded IC50.
1. [2H]C([2H])([2H])Oc1ncc(-c2ccc3nc(NC(C)=O)cn3n2)cc1C(=O)NCc1cc(F)cc(F)c1OC1COC1
2. COc1ncc(-c2ccc3nc(NC(C)=O)cn3n2)cc1C(=O)NCc1cccc(F)c1OCC1CC1 [Example 151, TFA]
3. CC(=O)Nc1cn2nc(-c3cnc(C)c(C(=O)NCc4ccccc4OCC4CC4)c3)ccc2n1

[A]
1. 10 nM
2. 8 nM
3. 8 nM
